# MEASUREMENT_PROTOCOL: NCI Yeast Anticancer Drug Screen. Data for the sgs1 mgt1 strain (AID 161);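 further: 0% = growth of cultures given vehicle only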
# CONDITION_LABEL: S. cerevisiae sgs1 mgt1 strain, at 50.0 µM (retest, dose inferred, filed as 5.0)
About 79,000 compounds went through this panel and 15% of them were active in at least one assay; those are over-represented in the sample as a whole. Calls of active or inactive are those of the source. No stated cut-off is given here; in the data, active means growth inhibition above about 70%; inactive means the rest.
Outcome field: choose from active, inactive

Test call for this compound, please: O=[N+]([O-])c1ccccc1C(c1ccc2ccccc2c1O)N1CCOCC1 (stereo not given)
active

// param item: "O[C@H]1c2cccn2-c2ccccc2S[C@H]1c1ccccc1" ; yields the recorded call
active

I'd appreciate the recorded outcome for "Clc1ccc(CNc2ccc(Br)cc2)cc1" from this test.
active

----------
Would you kindly list growth inhibition for each of these compounds?
# MEASUREMENT_PROTOCOL: NCI Yeast Anticancer Drug Screen. Data for the bub3 strain (AID 167)
# CONDITION_LABEL: S. cerevisiae bub3 mutant strain, at 50.0 µM, stronger effect = higher value
Compounds without any hit were thinned out: in the full panel of roughly 79,000, 15% have a hit.
One number for each entry, in %.

Cc1nc(-c2ccc(N=Cc3ccc(N(CCOS(C)(=O)=O)CCOS(C)(=O)=O)cc3Cl)cc2)c(C)s1: -8.8
COc1ccc2c(c1)Cc1cc(NC(=O)N(CCCl)N=O)ccc1-2: 22.9

Batch request: growth inhibition for each of the following compounds.
1. CN(C)C(=S)S(=O)(=O)CCCCS(=O)(=O)C(=S)N(C)C
2. Cc1ccc(C(=O)C(CN(C)C)CN(C)C)cc1C
3. O=[N+]([O-])c1ccc(-c2ccc(-c3csc(Nc4ccccc4)n3)o2)cc1
4. Oc1ccc(Cc2cc(Cl)cc(Cl)c2O)cc1Cl
5. Cc1ccc[n+](CC(=O)C2CCC3CC4CCCCC4CC3C2)c1 (configuration not stated)
6. C[n+]1c(/C=C/c2ccc(N3CCCC3)cc2)sc2ccccc21
7. CC(C)(C)SC(=O)C1(C)OC1c1ccc([N+](=O)[O-])cc1 (configuration not stated)

[20.9, 87.5, 93, 99.3, 18.8, 98.2, 29.8]

Dear colleague, could you send me growth inhibition for each of the items below? Thanks.
1. Cc1c(-c2ccccc2)ccnc1/C=N/NC(=S)Nc1ccc(N(C)C)cc1
2. CN1C(=O)C(Cl)(C(Cl)(Cl)S(=O)(=O)O)C(=O)c2ccccc21 (configuration not stated)
3. Fc1ccc2c(c1)Nc1cc(F)cc(F)c1S2

[81.7, 4.2, 40.8]

----------
# MEASUREMENT_PROTOCOL: NCI Yeast Anticancer Drug Screen. Data for the rad50 strain (AID 155);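 further: 0% = growth of vehicle-only cultures of the same strain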
# CONDITION_LABEL: S. cerevisiae rad50 strain growth inhibition; at 50.0 µM (retest, dose inferred, filed as 5.0); stronger effect = higher value
This is part of a sample that, as a whole, favours compounds with a hit. Of some 79,000 tested, about 15% had one in any assay. Activity calls are given as the source filed them. No stated cut-off is given here; in the data, active means growth inhibition above about 70%; inactive means the rest.
PROPERTY: growth inhibition

Solved entries (count: 3):
COc1ccccc1NC(=O)C1=CNC(C)=C(C(=O)Nc2ccccc2OC)C1/C=C/c1ccccc1 (stereo unspecified): 18% (inactive)
O=[N+]([O-])/C(Br)=C\c1ccc([N+](=O)[O-])cc1: 99% (active)
Clc1ccc(N2CCN(CCCN3CCN(c4ccc(Cl)cc4)CC3)CC2)cc1: 29% (inactive)

# batch: return growth inhibition for each of the 5 compounds below
1. CC(=O)[O-].O=C(N/N=C/c1ccccc1[O-])c1ccccc1.[Zn+2]
2. CCOC(=O)/C(C#N)=C\c1ccc(N(CCC(=O)O)CCC(=O)O)c(I)c1
3. O=C(C[P+](c1ccccc1)(c1ccccc1)c1ccccc1)c1ccc(Br)cc1
4. OCc1c(-c2cccc3ccccc23)sc(-c2cccc3ccccc23)c1CO
5. S=c1nc(C(c2ccccc2)c2ccccc2)[nH][nH]1

1. 61% (inactive)
2. 77% (active)
3. 96% (active)
4. 74% (active)
5. 1% (inactive)

Required: growth inhibition, one value per compound below.
1. Cc1cc(NC(=S)SCc2ccc(F)cc2)ccc1Br
2. Cc1ccc(C(=O)C(CN(C)C)CN(C)C)cc1C
3. CN(/N=C/C(O)C(O)C(O)CO)c1ccccc1 (stereo unspecified)

99% (active)
83% (active)
97% (active)

----------
# MEASUREMENT_PROTOCOL: NCI Yeast Anticancer Drug Screen. Data for the mlh1 rad18 strain (AID 175)
# CONDITION_LABEL: S. cerevisiae mlh1 rad18 strain growth inhibition; at 50.0 µM (retest, dose inferred, filed as 5.0); stronger effect = higher value
The panel holds about 79,000 compounds, 15% with a hit somewhere; the sample as a whole holds those more often. Where a SMILES comes first, the peptide text is derived from it. The star is where a group is joined. Fmoc = O=C(OCC1c2ccccc2-c2ccccc21)*; Boc = CC(C)(C)OC(=O)*
Label 1.0 when growth inhibition >= 40%; otherwise 0.0.

These recorded examples may help you get a feel for the data.
O=C(N/C(=C\c1ccc(Oc2ccc(Cl)c(Cl)c2)cc1)c1nc2ccccc2[nH]1)c1ccccc1: 1.0
Cc1cc(NCCO)nc2c1ccc1ccccc12: 0.0
ONC(=Nc1ccccc1)c1ccccc1: 1.0
C[n+]1c(/C=C/c2ccc(N3CCCC3)cc2)sc2ccccc21: 1.0
CCS(=O)(=O)OC(C)CCl (stereo not drawn): 0.0

Is it the case that CC(C)(C)OC(=O)NCCCCC(NC(=O)OCC1c2ccccc2-c2ccccc21)C(=O)N1CCCC1C(=O)NCC(N)=O (stereo not drawn) (Fmoc-Lys(Boc)-Pro-Gly-NH2; configuration not given here) has growth inhibition reaching or exceeding 40%?
1.0

Identify whether the reported growth inhibition of the following molecule is 40% or greater: "O=C1C(Sc2ccc3ccccc3c2)=C(Sc2ccc3ccccc3c2)C(=O)c2ccccc21"
1.0

State whether the measured growth inhibition reaches 40%, counting equality as reaching it, for "CNS(=O)(=O)c1ccccc1C=C(c1ccccc1)c1ccccc1"
1.0

Identify whether the reported growth inhibition of the following molecule is 40% or greater: CSc1nc(NC2OC(CO)C(O)C(O)C2O)c(Cl)c(=O)[nH]1 (stereo not drawn)
0.0

Is growth inhibition at least 40%? Consider "Cc1nc(Nc2ccc(Cl)cc2)sc1C(=O)NNC(=O)C(=O)NN"
0.0

Does growth inhibition meet or surpass 40% for CC(C)N(C(=O)C12C3C4C1C1C2C3C41I)C(C)C (stereo not drawn) ?
0.0

Threshold query (growth inhibition >= 40%) on "O=C1C=C(Cl)C(=O)C(Cl)=C1Cl"
1.0

Record "CC(C)=CCC/C(C)=C/CC/C(C)=C/CSc1ccccc1C(=O)O" ; criterion: growth inhibition no lower than 40%. Met?
0.0

Has "CCCCCCCCCCCCCCC[N+]1(CC)CCCCC1" a recorded growth inhibition greater than or equal to 40%?
1.0

Confirm if growth inhibition reported for the molecule "CN(C)c1ccc(/C=C/c2ccnc3ccccc23)cc1Cl" is 40% or above.
1.0

Quick check, growth inhibition >= 40%? "C/C(=N/NC(=S)N(C)C)c1ccccc1O"
0.0

Decide: growth inhibition of CC1C/C(=C\c2ccc(O)c(O)c2)C(=O)/C(=C/c2ccc(O)c(O)c2)C1 (stereo not drawn) >= 40%?
1.0

Determine whether this molecule has growth inhibition no lower than 40%: "O=C(c1cc2c(C(F)(F)F)onc2c2ccccc12)C(F)(F)F"
0.0

Check this molecule for growth inhibition at or above 40%: "C#CC(=O)OCC#CCOC(=O)C#C"
1.0

Check this molecule for growth inhibition at or above 40%: O=C1OC(c2cccc(Cl)c2)Sc2ccccc21 (stereo not drawn)
1.0

Could you please find out whether "NC(=S)NNc1c([N+](=O)[O-])cnn(-c2ccccc2)c1=O" has growth inhibition that meets 40% or exceeds it?
0.0

For this molecule, is measured growth inhibition 40% or higher? "CCN(CC)CCOC(=O)Nc1cc(Cl)cc(Cl)c1"
1.0

----------
Record form. Attribute: growth inhibition. Fill in for each entry.
# MEASUREMENT_PROTOCOL: NCI Yeast Anticancer Drug Screen. Data for the rad50 strain (AID 155);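 further: 0% = growth of vehicle-only cultures of the same strain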
# CONDITION_LABEL: S. cerevisiae rad50 strain growth inhibition; at 50.0 µM (retest, dose inferred, filed as 5.0); stronger effect = higher value
This is part of a sample that, as a whole, favours compounds with a hit. Of some 79,000 tested, about 15% had one in any assay.
One number for each entry, in %.

Use the examples below as a reference point.
S=C(S)NCCN1CCNC1=S: 76
C=CCN1/C(=C/C=C\c2sc3ccccc3[n+]2CC=C)Sc2ccccc21: 98
O=[N+]([O-])/C(C(Cl)=C(Cl)Cl)=C(/Nc1ccccc1)SCc1ccccc1: 100
C/C(=N\O)c1ccc2cc(Br)c3ccccc3c2c1: 98
CN1/C(=C/C=C/C(I)=C/C=C/C2=[N+](C)c3ccccc3C2(C)C)C(C)(C)c2ccccc21: 88
COC(=O)c1ccc(Cl)c(Cl)c1: 20
CCCCCCCCCCCC[S+](C)C: 52
CC(=O)OC1CCC(C(C)(C)C)C(C)C1 (stereo not given): 43
C(=C\[n+]1ccc2ccccc2c1)/c1ccccc1: 35

Here's the next entry for you.
Sample "[O-]c1c2cc(-[n+]3c(-c4ccccc4)cc(-c4ccccc4)cc3-c3ccccc3)cc1CO[C@@H](c1ccccc1)[C@H](c1ccccc1)OCCOCCO[C@@H](c1ccccc1)[C@H](c1ccccc1)OC2" — what was its growth inhibition?
95
